target: T1, calcineurin expressed as the glutathione S-transferase fusion protein (GST-CN) (UniProt Q08209 2-347); experiment: fluorescence anisotropy (FA), direct binding of FITC-labeled peptide
T1 construct: also called CN-GST; recombinant GST-CN; not shown: glutathione S-transferase (GST) fusion partner
T1 sequence (Q08209 2-347): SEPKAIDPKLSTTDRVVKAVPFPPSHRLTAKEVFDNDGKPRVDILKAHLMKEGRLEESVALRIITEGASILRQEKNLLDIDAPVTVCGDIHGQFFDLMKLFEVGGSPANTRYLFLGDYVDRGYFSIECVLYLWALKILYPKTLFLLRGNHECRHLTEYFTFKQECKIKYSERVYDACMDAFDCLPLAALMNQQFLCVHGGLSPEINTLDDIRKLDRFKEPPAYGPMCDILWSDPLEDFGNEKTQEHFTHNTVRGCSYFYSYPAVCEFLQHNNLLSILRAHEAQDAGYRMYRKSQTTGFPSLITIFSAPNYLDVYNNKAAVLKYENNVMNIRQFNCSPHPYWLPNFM
assay endpoint: pKd
In simple prose, pKd is minus the logarithm base ten of a concentration in moles per litre.

The recorded pKd for XIXITQHLSKFXRRRRQ (not fully specified; sequence of peptide 14 (Dcb-ZIZIT-Gln-His-leu-Ser) conjugated to CPP9, cyclo(fΦRrRrQ), through a miniPEG-Lys linker; FITC at the C-terminus; Z = Tle; D-Leu, also called FITC-labeled CNI95) [CNI95 labeled at the C-terminus with FITC] is 7.77
